- Protocol: Local concentrations of penicillin in saliva after topical medication of various doses (Example VII)
- Format: in vivo, human
- Condition Info: human, in vivo, topical or ocular, 100 mg topical powder, 40 min; studies 1-3

{"Cpd Smiles": "CC1(C)S[C@@H]2[C@H](NC(=O)Cc3ccccc3)C(=O)N2[C@H]1C(=O)O", "concentration at 40 min [µg/mL]": 30000}

----------
- Protocol: Local concentrations of penicillin in saliva after topical medication of various doses (Example VII)
- Type: in vivo, human
- Condition Info: human, in vivo, topical or ocular, 2 mg topical powder, 120 min, after water at 60 min; studies 1-3

{"Cpd Smiles": "CC1(C)S[C@@H]2[C@H](NC(=O)Cc3ccccc3)C(=O)N2[C@H]1C(=O)O", "concentration at 2 h": "< 15000 ng/mL"}

----------
- Protocol: Local concentrations of penicillin in saliva after topical medication of various doses (Example VII)
- Type: in vivo, human
- Condition Info: human, in vivo, topical or ocular, 50 mg topical powder, 60 min; studies 1-3
Reported Metric: concentration at 1 h (µg/mL)

{"Cpd Smiles": "CC1(C)S[C@@H]2[C@H](NC(=O)Cc3ccccc3)C(=O)N2[C@H]1C(=O)O", "Reported Metric": "concentration at 1 h", "Recorded Measurement": 7500}
